Tested on: RAW-Dual (murine macrophage reporter line)
Test: viability score (confluency relative to resting cells, overnight) (fraction); higher = more viable, active = viable (0.7 or more)
Details: modulator concentration 10 µM
Assay Endpoint: viability score
Give bare numbers.

Parameters: items (list). Returns: viability score for each item.
1. CC(C)NCC(O)COc1ccccc1C(C)(C)C.Cl (stereo unspecified)
2. NC(=O)C1CCCc2c1[nH]c1ccc(Cl)cc21 (stereo unspecified)
3. CC(=O)Oc1c(C)cc2sc3ccccc3c(=O)c2c1C
4. COc1ccc(-n2nc(C(N)=O)c3c2C(=O)N(c2ccc(N4CCCCC4=O)cc2)CC3)cc1
5. CC(C)NC[C@H](O)COc1ccc(CCOCC2CC2)cc1.Cl
6. CCC(NC(C)C)C(O)c1ccc(O)c(O)c1 (stereo unspecified)
7. O=C(NCc1cccc(Cl)c1)c1cnc2n(c1=O)CCS2
8. C[C@@H]1COC(Nc2ccc3ncnc(Nc4ccc(OCc5nccs5)c(Cl)c4)c3c2)=N1

1: 0.922; 2: 0.959; 3: 0.998; 4: 1.01; 5: 1; 6: 0.997; 7: 0.999; 8: 0.595

Parameters: items (list). Returns: viability score for each item.
1. CN(C)C(CNC(=O)NCc1ccc(Cl)cc1)c1ccc2c(c1)CCO2 (stereo unspecified)
2. CCN1CCN(Cc2c(O)ccc3c2OC(=Cc2ccc(C)cc2)C3=O)CC1
3. O=C(Nc1cc(C(F)(F)F)cc(C(F)(F)F)c1)c1cc2ccccc2o1

[1, 0.995, 1.01]
